The reported numbers originate from ChEMBL document CHEMBL2401698.

Target: Adenosine receptor A2a (Homo sapiens) (UniProt P29274)
Sequence (P29274 whole entry): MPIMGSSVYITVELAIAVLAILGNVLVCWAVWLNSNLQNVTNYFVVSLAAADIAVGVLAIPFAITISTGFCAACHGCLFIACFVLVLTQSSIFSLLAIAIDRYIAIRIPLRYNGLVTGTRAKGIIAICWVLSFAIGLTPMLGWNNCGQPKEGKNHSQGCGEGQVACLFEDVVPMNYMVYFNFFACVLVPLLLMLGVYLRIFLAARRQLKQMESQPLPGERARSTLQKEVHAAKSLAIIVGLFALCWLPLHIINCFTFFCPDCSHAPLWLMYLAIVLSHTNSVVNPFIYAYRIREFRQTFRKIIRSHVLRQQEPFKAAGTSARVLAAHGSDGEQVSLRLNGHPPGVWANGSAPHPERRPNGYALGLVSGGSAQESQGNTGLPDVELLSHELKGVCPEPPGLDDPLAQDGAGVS
Assay: Displacement of [3H]2-[p-(2-carboxyethyl)phenylethylamino]-5'-N-ethylcarboxamidoadenosine from human adenosine A2A receptor expressed in HEK293 cell membranes at 10 uM after 60 mins by liquid scintillation counting analysis relative to control
measurement name: inhibition (%)

> print(dat)
                              smiles.record  measurement.name  numeric.readout
1  CNC(=O)[C@@]12C[C@@H]1[C@@H](n1cnc3c(NCc4cccc(Cl)c4)nc(C#Cc4ccc(S(=O)(=O)O)cc4)nc31)[C@H](O)[C@@H]2O        inhibition               23

(P) CNC(=O)[C@@]12C[C@@H]1[C@@H](n1cnc3c(NCCc4ccccc4)nc(C#Cc4ccccc4)nc31)[C@H](O)[C@@H]2O
(Q) CNC(=O)[C@@]12C[C@@H]1[C@@H](n1cnc3c(NCc4cccc(Cl)c4)nc(C#Cc4cccc(S(=O)(=O)O)c4)nc31)[C@H](O)[C@@H]2O
(R) O=S(=O)(O)c1ccc(CCNc2nc(C#Cc3ccccc3)nc3c2ncn3[C@H]2[C@H](O)[C@H](O)[C@@H]3C[C@@H]32)cc1
(S) CNC(=O)[C@@]12C[C@@H]1[C@@H](n1cnc3c(NCCc4ccc(S(=O)(=O)O)cc4)nc(C#Cc4ccccc4)nc31)[C@H](O)[C@@H]2O
// query // ranking: key=inhibition, reverse=True Please write the labels in the order that was asked for.
// result P, R, Q, S
(P: 32%, R: 15%, Q: 7%, S: 1%)
